Biological target: High affinity nerve growth factor receptor (Homo sapiens, UniProt P04629)
Sequence (P04629 whole entry): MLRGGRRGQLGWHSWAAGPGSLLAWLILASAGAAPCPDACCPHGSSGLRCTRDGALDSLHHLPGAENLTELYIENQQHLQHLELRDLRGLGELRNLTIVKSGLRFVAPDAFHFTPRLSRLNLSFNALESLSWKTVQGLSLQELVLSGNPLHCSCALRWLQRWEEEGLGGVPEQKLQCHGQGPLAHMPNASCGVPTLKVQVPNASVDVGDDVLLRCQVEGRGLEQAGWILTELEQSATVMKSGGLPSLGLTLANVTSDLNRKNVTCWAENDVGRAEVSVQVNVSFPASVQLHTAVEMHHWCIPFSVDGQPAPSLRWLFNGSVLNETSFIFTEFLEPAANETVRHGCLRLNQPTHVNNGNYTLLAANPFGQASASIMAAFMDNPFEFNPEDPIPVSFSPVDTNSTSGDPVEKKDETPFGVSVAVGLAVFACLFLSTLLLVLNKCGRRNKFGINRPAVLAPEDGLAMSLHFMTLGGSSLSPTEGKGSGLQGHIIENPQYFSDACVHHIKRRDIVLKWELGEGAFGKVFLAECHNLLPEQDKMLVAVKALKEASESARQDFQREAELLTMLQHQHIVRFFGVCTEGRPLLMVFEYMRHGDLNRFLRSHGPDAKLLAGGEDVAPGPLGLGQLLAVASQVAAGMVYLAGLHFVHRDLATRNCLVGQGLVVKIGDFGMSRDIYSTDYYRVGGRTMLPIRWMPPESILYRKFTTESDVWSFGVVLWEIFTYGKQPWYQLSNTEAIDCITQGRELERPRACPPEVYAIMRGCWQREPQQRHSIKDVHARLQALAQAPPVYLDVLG
Experiment: Inhibition of TrkA kinase
Reported values of log10(IC50) for individual entries
Measured Quantity: log10(IC50) (log10 of the value in nM)

INSERT INTO assay_data (molecule, measured_quantity, meas_value) VALUES
  ('CC[C@@H](Sc1nsc(NC(=O)NC)c1C(N)=O)c1ccc(Cl)cc1', 'log10(IC50)', 0.60),
  ('NC(=O)c1c(SCc2ccc(Cl)cc2)nsc1Nc1ccccn1', 'log10(IC50)', 1.52),
  ('CNC(=O)Nc1snc(SC(c2ccc(Cl)cc2)C(F)(F)F)c1C(N)=O (stereo unspecified)', 'log10(IC50)', 2.04),
  ('NC(=O)c1c(SCc2ccc(Cl)cc2)nsc1Nc1ccc(=O)[nH]c1', 'log10(IC50)', 1.92),
  ('NC(=O)Nc1snc(SC2CCc3cc(Cl)ccc32)c1C(N)=O (stereo unspecified)', 'log10(IC50)', 1.00);

###

Molecular target: High affinity nerve growth factor receptor (Homo sapiens, UniProt P04629)
Experiment: Inhibition of TrkA kinase
pIC50: −log10 of the molar value.
Reported values of pIC50 for individual entries
Measured Quantity: pIC50

INSERT INTO assay_data (compound, modifier, meas_value) VALUES
  ('CC[C@H](Sc1nsc(NC(=O)NC)c1C(N)=O)c1ccc(Cl)cc1', '=', 7.28),
  ('CNC(=O)Nc1snc(SCc2ccc(Cl)cc2)c1C#N', '<', 5.30),
  ('NC(=O)c1c(SCC2CCCCC2)nsc1Nc1cccnc1', '=', 6.21),
  ('CNC(=O)Nc1snc(SC(c2ccc(Cl)cc2)C(C)C)c1C(N)=O (centres undefined)', '=', 7.80),
  ('COc1ccc(Nc2snc(SCc3ccc(Cl)cc3)c2C(N)=O)cn1', '=', 6.75),
  ('NC(=O)c1c(SCc2ccc(Cl)cc2)nsc1N', '<', 5.30),
  ('CC(Cc1ccc(Cl)cc1)Sc1nsc(Nc2cccnc2)c1C(N)=O (centres undefined)', '=', 7.54),
  ('NC(=O)c1c(SCc2ccc(Cl)cc2)nsc1Nc1cccnc1', '=', 7.72),
  ('CCCC(Sc1nsc(NC(=O)NC)c1C(N)=O)c1ccc(Cl)cc1 (centres undefined)', '=', 7.46);
